Data origin: the array DNA melting data of Ke et al. (doi:10.1101/2024.01.08.574731)

Assay: melting temperature; fluorescence melt of hairpins on a sequencing array, two-state fit, raised by 9.35 °C to match UV melts
Conditions: sodium 0.088 M
ASSAY READOUT: Tm

RESIDUE CODES	Tm
GCCAAGCGAAAGCTTTGC ((.((((....)))).))	53.4 °C
GGCTTGACGAAAGTCGCC (((..(((....))))))	55.2 °C
GAATACACGAAAGTGTTC (((..(((....))))))	27.3 °C
GGTGCTGGAAACAGTGCC ((..(((....)))..))	50.1 °C

Per the records, this sequence ( GATCCCTCAAGGGATC ((((((....)))))) ) has Tm equal to 60.9 °C

Per the records, this sequence ( GAAACCGAAAGGTATTC ((((((....))).))) ) has Tm equal to 31.6 °C

Per the records, this sequence ( GTACTAGGAAACTAGTGC (.(((((....))))).) ) has Tm equal to 42.8 °C

Per the records, this sequence ( GTCTAACGAAAGTTTGAC (((.(((....))).))) ) has Tm equal to 47.6 °C

###

Below: a set of entries, each annotated with reported folding enthalpy.
Experiment: folding enthalpy; higher = less favourable; fluorescence melt of hairpins on a sequencing array, two-state fit
Settings: sodium 0.088 M
Reply with just the number (in kcal/mol).

Examples with answers:
RESIDUE CODES	MEASUREMENT UNITS	folding enthalpy
GTATTCCGAAAGGATTAC (((.(((....))).)))	kcal/mol	-28.2
GAGATAGGAAACTATCTC (((((((....)))))))	kcal/mol	-35

# context switch: different sequence, same folding enthalpy
Per the records, this sequence ( GTGGGTGGAAACACCCGC (.(((((....))))).) ) has folding enthalpy equal to -22.7

###

Assay: melting temperature; fluorescence melt of hairpins on a sequencing array, two-state fit, raised by 9.35 °C to match UV melts
Conditions: sodium 0.088 M
Below: a set of entries, each annotated with reported Tm.
Reply with just the number (in °C).

RESIDUE CODES	Tm, °C
GTTACCGAAAGGTGAAAC ((((((....)))..)))	27.5
GTATTCACGAAAGTGTAC (((..(((....))))))	25.8
GCTGCCGAAAGGCGAGC ((((((....))).)))	64.3
GTAATTGGAAACAATTAC (((((((....)))))))	50.4
GCGTTCCAACGC ((((....))))	55.6

Per the records, this sequence ( CTGAGGAAACTCAG (((((....))))) ) has Tm equal to 47.1

Per the records, this sequence ( GGCACAACGAAAGTTGCC (((..(((....)))))) ) has Tm equal to 44.2

Per the records, this sequence ( GATTCCGGAAACGGAATC (((((((....))))))) ) has Tm equal to 64.7

###

Experiment: melting temperature; fluorescence melt of hairpins on a sequencing array, two-state fit, raised by 9.35 °C to match UV melts
Conditions: sodium 0.088 M
ASSAY READOUT: Tm (°C)
Reply with just the number (in °C).

Examples with answers:
RESIDUE CODES	MEASUREMENT UNITS	REPORTED VALUE
GCGAGTTGTCGC ((((....))))	°C	50.9
GTGCAACGAAAGTTCCAC (((.(((....))).)))	°C	38.1
GCTGAGCGAAAGCTAGC (((.(((....))))))	°C	53
GCTTGCGGAAACGTGAGC (((..((....))..)))	°C	46.5
GCAGTGCGAAAGCATTGC (((.(((....))).)))	°C	58.9
GCTCGGCGAAAGCCCAGC (((.(((....))).)))	°C	44.2
ACAATGAAAATTGT (((((....)))))	°C	34.8
GATCCTGGGCAGGATC ((((((....))))))	°C	54.2
GATCAACCGTTTGATC ((((((....))))))	°C	42.8
GATCCGAAAGCGGATC ((((((....))))))	°C	53.1

Per the records, this sequence ( GAGAACGAAAGTTCACTC ((((((....)))..))) ) has Tm equal to 44.3

Per the records, this sequence ( GCTGTGCGAAAGCCCTGC ((.(.((....)).).)) ) has Tm equal to 41.9

Per the records, this sequence ( GAATTCCGAAAGGATTC (((.(((....)))))) ) has Tm equal to 38.4

Per the records, this sequence ( GTAGTTGGAAACGATTAC (((.(.(....).).))) ) has Tm equal to 30.9

Per the records, this sequence ( GTCTCGAAAGAGAC (((((....))))) ) has Tm equal to 60.5

Per the records, this sequence ( GCGTCGCGAAAGCGGAGC ((..(((....)))..)) ) has Tm equal to 67.5

Per the records, this sequence ( GATCGGCTAACCGATC ((((((....)))))) ) has Tm equal to 56.5

Per the records, this sequence ( GATCTTCTCTAAGATC ((((((....)))))) ) has Tm equal to 42.8

Per the records, this sequence ( GATCGATGAATCGATC ((((((....)))))) ) has Tm equal to 55.1

Per the records, this sequence ( GAACGCACGAAAGTGTTC (((..(((....)))))) ) has Tm equal to 34.1

Per the records, this sequence ( GGGTAAGAAATTACCC ((((((....)))))) ) has Tm equal to 50.9

Per the records, this sequence ( GATCGGAGGCCGATC ((((((...)))))) ) has Tm equal to 55.8

Per the records, this sequence ( GCAGTTGGAAACGATTGC (((.(.(....).).))) ) has Tm equal to 36.1

Per the records, this sequence ( GATCAAACCTTGATC ((((((...)))))) ) has Tm equal to 40.9

Per the records, this sequence ( GGCTACGAAAGTACCGCC ((((((....)))..))) ) has Tm equal to 48.4
